Study Target: recombinant homotrimeric HA, A/South Carolina/1/18 H1N1 (Influenza A virus A/South Carolina/1/18 (H1N1))
Assay Overview: trimeric HA microarray, transfection set 2
Experimental Setup: remark: other sources report otherwise
Some binders, each annotated with its measured Trimeric HA Binding RLU.
Give a bare numeral; the unit RLU is implied.

As a guide, the following entries are already answered.
TCN-528 (5087_P17) (antibody, V domains shown) VH: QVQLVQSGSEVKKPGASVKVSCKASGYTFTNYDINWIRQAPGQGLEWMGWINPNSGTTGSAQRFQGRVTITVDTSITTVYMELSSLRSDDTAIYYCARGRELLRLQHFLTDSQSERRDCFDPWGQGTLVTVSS VL: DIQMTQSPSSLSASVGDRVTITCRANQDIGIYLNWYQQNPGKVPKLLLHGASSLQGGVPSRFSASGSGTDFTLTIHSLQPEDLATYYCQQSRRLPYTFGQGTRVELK :: 25200
TCN-504 (3251_K17) (antibody, V domains shown) VH: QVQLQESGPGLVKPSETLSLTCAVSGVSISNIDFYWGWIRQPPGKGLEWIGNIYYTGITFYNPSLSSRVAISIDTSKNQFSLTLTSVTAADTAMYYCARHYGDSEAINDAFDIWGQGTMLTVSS VL: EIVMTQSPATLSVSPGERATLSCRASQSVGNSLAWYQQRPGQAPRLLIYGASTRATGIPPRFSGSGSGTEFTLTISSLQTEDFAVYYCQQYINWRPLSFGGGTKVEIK :: 24700
TCN-523 (5248_A17) (antibody, V domains shown) VH: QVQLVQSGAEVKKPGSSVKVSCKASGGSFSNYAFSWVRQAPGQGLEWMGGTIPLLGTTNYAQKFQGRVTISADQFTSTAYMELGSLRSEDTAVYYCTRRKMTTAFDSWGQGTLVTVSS VL: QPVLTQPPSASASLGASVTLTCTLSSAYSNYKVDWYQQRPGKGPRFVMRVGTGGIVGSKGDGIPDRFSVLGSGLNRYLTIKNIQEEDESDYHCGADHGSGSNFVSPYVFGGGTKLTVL :: 25500

Endpoint output: Trimeric HA Binding RLU of TCN-527 (5086_C06) (antibody, V domains shown) VH: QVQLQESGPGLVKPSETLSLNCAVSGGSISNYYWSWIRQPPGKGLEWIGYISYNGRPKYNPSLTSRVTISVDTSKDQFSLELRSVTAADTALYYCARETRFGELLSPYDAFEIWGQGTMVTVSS VL: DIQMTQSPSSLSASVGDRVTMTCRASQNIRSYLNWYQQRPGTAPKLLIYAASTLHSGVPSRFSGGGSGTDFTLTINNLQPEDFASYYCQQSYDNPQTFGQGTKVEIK . Value?
48100
